Where do these numbers come from? They come from ChEMBL document CHEMBL5137025.

experiment: Absolute oral bioavailability in overnight fasted Sprague-Dawley rat at 5 mg/kg measured for 0.25 to 24 hrs; format: ADME, organism-based; details: in vivo, time 0.25-24 hrs
bioavailability for assorted molecules
Mention the unit after the number when you answer.

Molecule | Experimental value
C[C@H]1COC2(CCN(c3nc(=O)c4cc(C(F)(F)F)cc([N+](=O)[O-])c4s3)CC2)O1 [BTZ-043] | 30%

The recorded bioavailability for entry O=c1nc(N2CCC3(CC2)OCCO3)sc2c([N+](=O)[O-])cc(C(F)(F)F)cc12 equals 44%

----------
experiment: Metabolic stability in mouse liver microsome assessed as half life in presence of NADPH measured upto 60 mins by LC-MS/MS analysis; assay type: ADME; details: liver microsomes
Measured property: half-life
Mention the unit after the number when you answer.

The recorded half-life for entry CC1(C)CCC(OC(=O)Nc2cc(O)cc(Cc3ccccc3)c2)CC1 equals 1.8 min
